// provenance: ChEMBL document CHEMBL1125413

pIC50 values by entry
# system: UniProtKB P23977
# test.summary: Inhibition of [3H]-dopamine uptake at dopamine transporter.
When answering, recall that pIC50 equals minus log10 of the concentration in mol/L, and write that number alone.

CC[C@H](C)[C@H](NC(=O)[C@@H](NC[C@H](CC(C)C)NC(=O)[C@H](Cc1c[nH]cn1)NC(=O)[C@H](Cc1ccccc1)NC(=O)[C@]1(C)CCCN1C(=O)OC(C)(C)C)C(C)C)C(=O)NCc1ccccn1; 7.54
CN1C2CC[C@@H]1C[C@H](OC(=O)c1ccc(N)cc1)C2C(=O)O (some centres undefined); 7.46
COC(=O)C1C2CC[C@H](C[C@@H]1OC(=O)c1ccccc1)[N+]2(C)C (some centres undefined); 7.85

# context switch: different molecule, same pIC50
Sure, the documented pIC50 for CNC(=O)C1C2CC[C@H](C[C@@H]1OC(=O)c1ccccc1)N2C (some centres undefined) is 5.70

###

# system: Sodium-dependent dopamine transporter (Rattus norvegicus, UniProt P23977)
# Sequence (P23977 whole entry): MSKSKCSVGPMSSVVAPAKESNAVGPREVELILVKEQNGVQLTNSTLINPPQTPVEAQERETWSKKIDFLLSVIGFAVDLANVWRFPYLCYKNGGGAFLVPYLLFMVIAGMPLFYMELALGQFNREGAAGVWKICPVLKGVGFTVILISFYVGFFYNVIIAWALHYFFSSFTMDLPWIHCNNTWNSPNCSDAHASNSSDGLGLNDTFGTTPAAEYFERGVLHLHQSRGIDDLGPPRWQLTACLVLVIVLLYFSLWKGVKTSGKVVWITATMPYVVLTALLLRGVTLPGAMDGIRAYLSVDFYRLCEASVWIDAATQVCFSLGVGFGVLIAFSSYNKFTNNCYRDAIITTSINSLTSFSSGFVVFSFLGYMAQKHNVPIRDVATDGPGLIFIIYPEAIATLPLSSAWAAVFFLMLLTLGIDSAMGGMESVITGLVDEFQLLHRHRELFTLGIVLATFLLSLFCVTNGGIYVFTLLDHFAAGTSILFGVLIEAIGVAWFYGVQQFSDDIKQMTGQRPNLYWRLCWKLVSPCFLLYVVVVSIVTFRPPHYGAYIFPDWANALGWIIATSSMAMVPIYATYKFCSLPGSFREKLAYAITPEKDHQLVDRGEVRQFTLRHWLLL
# test.summary: Inhibition of [3H]mazindol binding to the dopamine transporter.
IC50 values by entry

Guide cases for IC50, answers given:
COC(=O)[C@@H]1C2CC[C@H](C[C@@H]1c1ccccc1)N2C (stereo in doubt; 47); 0.119 µM
COC(=O)C1C2CC[C@H](C[C@@H]1O)N2C (stereo in doubt; 31); 87 µM
COC(=O)C1C2CC[C@H](C[C@@H]1c1ccc(Cl)cc1)N2C (some centres not stated); 0.002 µM

Sure, the documented IC50 for O=C(O[C@H]1C[C@H]2CCC(N2)C1C(=O)O)c1ccccc1 (some centres not stated) is 342 µM

Sure, the documented IC50 for CN1C2CC[C@@H]1C[C@H](O)C2C(=O)O (some centres not stated) is > 1000 µM

Sure, the documented IC50 for COC(=O)C1C2CC[C@H](C[C@@H]1OC(=O)c1ccccc1)N2 (stereo in doubt; 22) is 1.21 µM

Sure, the documented IC50 for CN1[C@@H]2CC[C@H]1C[C@H](OC(=O)c1ccccc1)C2 is 15 µM

###

# system: Sodium-dependent dopamine transporter (Rattus norvegicus, UniProt P23977)
# test.summary: Potency for the inhibition of [3H]WIN-35428 binding to the dopamine transporter
pIC50: −log10 of the molar value.
Assign classes using reported pIC50 values and the ranges bin A: < 6; bin B: ≥ 6 and < 7; bin C: ≥ 7, please.

Reference set, count: 3
COC(=O)C1C2CC[C@H](C[C@@H]1OC(=O)c1ccccc1)[N+]2(C)C (some centres undefined); bin A
COC(=O)[C@@H]1C2CC[C@H](C[C@@H]1c1ccccc1)N2C; bin B
COC(=O)C1C2CC[C@H](C[C@H]1c1ccc(C)cc1)N2C (some centres undefined); bin C

[ask] Which class does COC(=O)C1C2CC[C@H](C[C@@H]1c1ccc(I)cc1)N2C (some centres undefined) fall in?
[reply] bin C

[ask] Which class does COC(=O)C1C2CC[C@H](C[C@@H]1OC(=O)c1ccccc1)N2 (stereo in doubt; 22) fall in?
[reply] bin B

[ask] Which class does CN1C2CC[C@@H]1C[C@H](OC(=O)c1ccc(N)cc1)C2C(=O)O (some centres undefined) fall in?
[reply] bin A

###

# system: Sodium-dependent dopamine transporter (Rattus norvegicus, UniProt P23977)
quantity.kind: pIC50
When answering, recall that pIC50 equals minus log10 of the concentration in mol/L, and write that number alone.

COC(=O)C1C2CC[C@H](C[C@@H]1OC(=O)c1cccc(N=C=S)c1)N2C (some centres undefined); 7.14
COC(=O)C1C2CC[C@H](C[C@@H]1OC(=O)Nc1cccc([N+](=O)[O-])c1)N2C (some centres undefined); 6.48

Sure, the documented pIC50 for CC[C@H](C)[C@H](NC(=O)[C@@H](NC[C@H](CC(C)C)NC(=O)[C@H](Cc1c[nH]cn1)NC(=O)[C@H](Cc1ccccc1)NC(=O)[C@]1(C)CCCN1C(=O)OC(C)(C)C)C(C)C)C(=O)NCc1ccccn1 is 7.03

Sure, the documented pIC50 for COC(=O)C1C2CC[C@H](C[C@@H]1OC(=O)c1ccc(N=C=S)cc1)N2C (some centres undefined) is 6.56
